ASSAY TARGET: sodium-proton exchanger of subtype 3 (NHE3) (Homo sapiens, UniProt P48764)
Construct: expressed in transfected cells
Sequence (P48764 26-834, species assumed): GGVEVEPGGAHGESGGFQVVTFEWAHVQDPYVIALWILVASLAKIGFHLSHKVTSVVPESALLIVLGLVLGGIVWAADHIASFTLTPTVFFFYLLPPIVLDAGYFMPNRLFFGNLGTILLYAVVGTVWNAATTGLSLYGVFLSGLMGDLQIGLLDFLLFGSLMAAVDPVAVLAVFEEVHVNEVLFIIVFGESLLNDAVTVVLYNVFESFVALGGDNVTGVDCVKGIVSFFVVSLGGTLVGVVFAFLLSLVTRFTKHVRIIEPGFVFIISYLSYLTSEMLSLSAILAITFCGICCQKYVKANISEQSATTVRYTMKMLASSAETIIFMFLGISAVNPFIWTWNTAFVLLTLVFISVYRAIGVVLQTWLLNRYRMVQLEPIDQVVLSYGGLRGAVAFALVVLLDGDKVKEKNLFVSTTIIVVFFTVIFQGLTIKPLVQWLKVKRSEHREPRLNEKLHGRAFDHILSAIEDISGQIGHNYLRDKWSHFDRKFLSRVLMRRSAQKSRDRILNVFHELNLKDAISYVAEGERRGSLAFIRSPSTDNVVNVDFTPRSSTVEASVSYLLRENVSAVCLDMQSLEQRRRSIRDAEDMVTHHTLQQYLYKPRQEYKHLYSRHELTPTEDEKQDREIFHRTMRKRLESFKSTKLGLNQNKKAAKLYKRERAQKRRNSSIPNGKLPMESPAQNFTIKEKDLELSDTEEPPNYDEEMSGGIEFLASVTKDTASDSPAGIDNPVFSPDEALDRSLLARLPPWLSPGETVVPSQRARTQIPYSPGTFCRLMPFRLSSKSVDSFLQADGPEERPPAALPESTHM
TEST NAME: Recovery of intracellular pH (pHi) after acidification in LAP1 cells stably expressing NHE3 (BCECF fluorescence, FLIPR)
Format: cell-based
MEASUREMENT PARAMETERS: LAP1 cells stably expressing NHE3; pH recovery after acidification; range 1 is % inhibition at 10 μM; read-out: Activity range (inhibitory effect on NHE3)
pIC50: −log10 of the molar value.
Recorded measurements of pIC50, one per entry

{"COMPOUND": "COCCc1ccc(O[C@@H]2c3ccccc3C[C@H]2N2CCC(N)C2)cc1 (mixture of isomers)", "pIC50": "5.00 to 6.00"}
{"COMPOUND": "CCOC(=O)c1ncoc1-c1ccc(O[C@H]2c3ccccc3CC[C@@H]2N2CCC[C@@H](N)C2)cc1 (racemic)", "pIC50": "5.00 to 6.00"}
{"COMPOUND": "O=C1OCCN1c1ccc(Cl)c(O[C@H]2c3cc(Cl)cc(F)c3C[C@@H]2N2CC[C@@H](O)C2)c1", "pIC50": "> 6.00"}
{"COMPOUND": "CS(=O)(=O)c1ccc(O[C@H]2c3cc(F)ccc3C[C@@H]2N2CCNCC2)cc1 (racemic)", "pIC50": "5.00 to 6.00"}
{"COMPOUND": "O=C1OCCN1c1ccc(O[C@H]2c3cc(Cl)cc(Cl)c3C[C@@H]2N2CC[C@@H](O)C2)cc1", "pIC50": "5.00 to 6.00"}
{"COMPOUND": "Cc1nnc(C)n1-c1ccc(O[C@H]2c3cc(Cl)cc(Cl)c3C[C@@H]2N2CCC[C@@H](O)C2)cc1", "pIC50": "> 6.00"}
{"COMPOUND": "C[C@]1(O)CCN([C@H]2Cc3c(Cl)cc(Cl)cc3[C@@H]2Oc2ccc(S(C)(=O)=O)cc2)C1 (racemic)", "pIC50": "5.00 to 6.00"}

###

ASSAY TARGET: sodium-proton exchanger of subtype 3 (NHE3) (Homo sapiens, UniProt P48764)
Construct: expressed in transfected cells
TEST NAME: Recovery of intracellular pH (pHi) after acidification in LAP1 cells stably expressing NHE3 (BCECF fluorescence, FLIPR)
Format: cell-based
MEASUREMENT PARAMETERS: LAP1 cells stably expressing NHE3; pH recovery after acidification; range 1 is % inhibition at 10 μM; read-out: Activity range (inhibitory effect on NHE3)
OBSERVED PROPERTY: IC50

{"COMPOUND": "O=C1CCC(=O)N1c1ccc(Cl)c(O[C@H]2c3cc(Cl)cc(Cl)c3C[C@@H]2N2CC[C@@H](O)C2)c1", "VALUE REPORTED": "1000 to 10000 nM"}
{"COMPOUND": "Brc1ccccc1O[C@@H]1c2ccccc2C[C@H]1N1C[C@H]2CNC[C@H]2C1 (racemic)", "VALUE REPORTED": "1000 to 10000 nM"}
{"COMPOUND": "N#Cc1ccc(O[C@H]2c3ccccc3C[C@@H]2N2CCCC2)cc1 (racemic)", "VALUE REPORTED": "1000 to 10000 nM"}
{"COMPOUND": "CN(c1ccc(O[C@H]2c3cc(Cl)cc(Cl)c3C[C@@H]2N2CC[C@@H](O)C2)cc1)S(C)(=O)=O", "VALUE REPORTED": "< 1000 nM"}
{"COMPOUND": "Cc1nnc(C)n1-c1ccc(O[C@H]2c3cc(Cl)cc(Cl)c3C[C@@H]2N2CCOCC2)c(F)c1", "VALUE REPORTED": "< 1000 nM"}
{"COMPOUND": "CN(C)S(=O)(=O)c1ccc(OC2c3ccccc3CC2N2CCC[C@@H](N)C2)c(Cl)c1Cl (mixture of isomers)", "VALUE REPORTED": "< 1000 nM"}
{"COMPOUND": "CCn1cnn(-c2ccc(O[C@H]3c4cc(Cl)cc(Cl)c4C[C@@H]3N3CC[C@@H](O)C3)cc2)c1=O", "VALUE REPORTED": "1000 to 10000 nM"}
{"COMPOUND": "CN1C[C@@H]2CN([C@H]3Cc4c(Cl)cc(Cl)cc4[C@@H]3Oc3ccc(S(C)(=O)=O)cc3)C[C@@H]2C1", "VALUE REPORTED": "< 1000 nM"}
{"COMPOUND": "CCc1ccc(O[C@@H]2c3ccccc3C[C@H]2N2CCC[C@@H](N)C2)c(C(C)(C)C)c1 (racemic)", "VALUE REPORTED": "1000 to 10000 nM"}
{"COMPOUND": "Cc1nnc(C)n1-c1ccc(O[C@H]2c3cc(Cl)ccc3C[C@@H]2N2CCOCC2)c(Cl)c1", "VALUE REPORTED": "< 1000 nM"}
{"COMPOUND": "CN1CCN(c2cccc(O[C@H]3c4cc(Cl)cc(F)c4C[C@@H]3N3CC[C@@H](O)C3)c2)C1=O", "VALUE REPORTED": "1000 to 10000 nM"}
{"COMPOUND": "CC(=O)Nc1cccc(O[C@@H]2c3ccccc3C[C@H]2N2CCC(CN)C2)c1 (mixture of isomers)", "VALUE REPORTED": "1000 to 10000 nM"}
{"COMPOUND": "COCCN(C)[C@H]1Cc2c(Cl)cc(Cl)cc2[C@@H]1Oc1ccc(-n2c(C)nnc2C)cc1", "VALUE REPORTED": "< 1000 nM"}
{"COMPOUND": "N#Cc1ccc(O[C@H]2c3cc(Cl)cc(F)c3C[C@@H]2N2CC[C@@H](O)C2)c(F)c1", "VALUE REPORTED": "1000 to 10000 nM"}
{"COMPOUND": "COc1cccc(F)c1O[C@@H]1c2ccccc2C[C@H]1N1C[C@H]2CNC[C@H]2C1 (racemic)", "VALUE REPORTED": "1000 to 10000 nM"}
